target: Nitric oxide synthase 1 (Rattus norvegicus)
Sequence (P29476 whole entry): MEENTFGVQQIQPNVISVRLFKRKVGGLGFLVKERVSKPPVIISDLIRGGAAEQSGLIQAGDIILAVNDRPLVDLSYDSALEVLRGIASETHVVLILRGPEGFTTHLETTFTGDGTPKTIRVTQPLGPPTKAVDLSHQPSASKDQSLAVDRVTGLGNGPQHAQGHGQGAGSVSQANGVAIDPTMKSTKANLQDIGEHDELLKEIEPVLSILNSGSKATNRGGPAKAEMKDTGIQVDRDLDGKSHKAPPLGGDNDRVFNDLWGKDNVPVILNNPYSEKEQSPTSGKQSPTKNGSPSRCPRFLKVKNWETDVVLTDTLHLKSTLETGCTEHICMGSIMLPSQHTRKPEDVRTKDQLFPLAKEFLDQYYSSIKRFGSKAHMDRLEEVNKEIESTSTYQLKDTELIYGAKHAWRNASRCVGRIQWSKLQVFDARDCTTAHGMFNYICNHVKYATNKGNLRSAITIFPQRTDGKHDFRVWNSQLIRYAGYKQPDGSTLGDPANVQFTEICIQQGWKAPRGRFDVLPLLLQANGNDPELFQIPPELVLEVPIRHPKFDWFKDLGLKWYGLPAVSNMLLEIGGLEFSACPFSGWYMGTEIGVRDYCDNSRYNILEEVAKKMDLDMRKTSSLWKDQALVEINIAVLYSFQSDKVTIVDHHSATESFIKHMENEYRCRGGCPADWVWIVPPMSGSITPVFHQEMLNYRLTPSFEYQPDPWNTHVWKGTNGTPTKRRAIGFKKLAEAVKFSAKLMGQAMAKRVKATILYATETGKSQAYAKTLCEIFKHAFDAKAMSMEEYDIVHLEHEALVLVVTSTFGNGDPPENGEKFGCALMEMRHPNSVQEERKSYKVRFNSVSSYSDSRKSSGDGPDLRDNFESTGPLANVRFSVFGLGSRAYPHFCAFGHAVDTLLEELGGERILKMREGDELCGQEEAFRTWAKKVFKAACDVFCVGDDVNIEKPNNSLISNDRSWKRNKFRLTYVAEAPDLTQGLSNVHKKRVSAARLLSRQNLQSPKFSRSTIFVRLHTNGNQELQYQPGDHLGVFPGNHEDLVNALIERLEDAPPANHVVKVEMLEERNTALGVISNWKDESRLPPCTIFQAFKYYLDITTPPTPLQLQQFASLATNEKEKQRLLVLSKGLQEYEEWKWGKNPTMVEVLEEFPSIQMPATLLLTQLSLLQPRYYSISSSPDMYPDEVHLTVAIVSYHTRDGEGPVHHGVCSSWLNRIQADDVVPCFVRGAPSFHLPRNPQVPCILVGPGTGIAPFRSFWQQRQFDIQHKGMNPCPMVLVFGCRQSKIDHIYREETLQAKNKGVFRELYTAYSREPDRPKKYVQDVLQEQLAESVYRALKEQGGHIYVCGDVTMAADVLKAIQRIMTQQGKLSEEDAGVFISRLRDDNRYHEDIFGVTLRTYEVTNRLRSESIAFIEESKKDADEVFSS
pIC50: −log10 of the molar value.
Please mark Fulfilled if the recorded pIC50 is equal to or greater than 7, and Not fulfilled if it falls below.

Is pIC50 for CN(C)CCOc1ccc(-c2cccc(N)n2)c2c1C1CCC2C1 (stereo unspecified) at or above 7? Not fulfilled

Is pIC50 for `CN(C)CCOc1ccc(-c2cccc(N)n2)c2c1CCC2` at or above 7? Fulfilled

Is pIC50 for `Nc1cccc(-c2ccc(OCCN3CCCC3)c3ccccc23)n1` at or above 7? Not fulfilled

Is pIC50 for `Nc1cccc(-c2ccc(OCCN3CCCC3)c3c2CCC3)n1` at or above 7? Fulfilled
